The entries below are paired with their reported pIC50.
- Measurement Target: soluble TPO-R (thrombopoietin receptor), immobilized (UniProt P40238 26-491)
- Sequence (P40238 26-491): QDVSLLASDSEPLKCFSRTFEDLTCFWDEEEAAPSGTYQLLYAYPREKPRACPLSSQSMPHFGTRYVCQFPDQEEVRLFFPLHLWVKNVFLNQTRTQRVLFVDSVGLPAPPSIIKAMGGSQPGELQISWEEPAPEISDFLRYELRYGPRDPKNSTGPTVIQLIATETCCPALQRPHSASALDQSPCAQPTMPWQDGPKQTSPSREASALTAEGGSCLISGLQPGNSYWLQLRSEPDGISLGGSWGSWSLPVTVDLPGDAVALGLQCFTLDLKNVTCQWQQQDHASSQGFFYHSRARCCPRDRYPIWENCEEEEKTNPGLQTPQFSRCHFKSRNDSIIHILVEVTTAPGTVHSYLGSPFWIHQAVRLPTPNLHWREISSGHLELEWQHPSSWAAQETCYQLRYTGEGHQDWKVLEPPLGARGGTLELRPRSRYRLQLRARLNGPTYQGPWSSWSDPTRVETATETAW
- Assay Protocol: competition ELISA vs MBP-TPO156 (+: IC50 <=200 µM)
pIC50: −log10 of the molar value. Bridges are numbered along the chain shown (N, C = ends). Where no end group is shown, it is not given here.

Binder: CPTLREWISFC-NH2 (disulfide 1-11 (inferred)) [cyclized SEQ ID NO:12 compound, ADG - deletion]
pIC50: 3.70 to 6.30

For CADGPTLREWASFC-NH2 (disulfide 1-14 (inferred)) [cyclized SEQ ID NO:12 compound, I - A] the binder record lists pIC50 as 3.70 to 6.30
